Listed here are binders together with their documented EC50 [µM], FXa generation assay.
target: human Factor IXa (human, UniProt P00740 47-191; P00740 227-461); experiment: cell-based or functional assay
Square brackets hold non-standard residues; d marks the D form. Primed or numbered codes have the meaning given here. Side chains are listed from the residue outwards. Ends that are not written are not given here. * marks the point of attachment. Biotin = O=C1N[C@H]2[C@H](CS[C@H]2CCCCC(=O)*)N1; PEG2(3) = PEG2 spacer carrying biotin on Lys; NMeW = CN[C@@H](Cc1c[nH]c2ccccc12)C(=O)O

Solved entries:
binder	EC50 [µM], FXa generation assay
QGQARKLACLASYCWLFPSSAG	> 50 µM
KLTCLASYC[NMeW]LF (cysteine pairing not given here) [KLTCLASYC-MeTrp-LF]	> 20 µM
RRAPGKLTCLASYCWLFVTGTAHAPRVAPAPA [RRAPGKLTCLASYCWLF VTGTA HAPRVAPAPA]	> 1 µM
RRAPGKLTCLASYCWLFWTAVGGQPYMLLAWR [RRAPGKLTCLASYCWLF WTAVG GQPYMLLAWR]	< 0.5 µM

Reported EC50 [µM], FXa generation assay for RRAPGKLTCLASYCK([PEG2(3)-Biotin])LFWTGIA (not fully specified (C-terminus); printed as RRAPGKLTCLASYCK(PEG2-Biotin)LFWTGIA; cysteine pairing not given here) [RRAPGKLTCLASYCK(PEG2-Biotin)LFWTGIA] was < 0.5 µM
